assayed_system: Human immunodeficiency virus type 1 reverse transcriptase (Human immunodeficiency virus 1, UniProt Q72547, Y181I)
test_summary: Inhibition of HIV1 RT Y181I mutant
The entries below come with measured IC50 values attached.
The reply should contain only the number, in µmol.

Ask | Dear colleague, I am looking for the recorded IC50 of the following compound: CCOc1cccc(C2(CC)Oc3ccccc3-n3cccc3C2=O)c1 (racemic)
Reply | 2.1

Ask | Sample CCC1(c2cccc(Cl)c2)Oc2ccccc2-n2cccc2C1=O (racemic) — what was its IC50?
Reply | 0.8

Ask | Data request, read-out IC50, for CCC1(c2cccc(C)c2)Oc2ccccc2-n2cccc2C1=O (racemic)
Reply | 4

Ask | Entry CCC1(c2ccc(COc3ccccc3)cc2)Oc2ccccc2-n2cccc2C1=O (racemic) : reported IC50 = ?
Reply | 0.7

====

assayed_system: Human immunodeficiency virus type 1 reverse transcriptase (Human immunodeficiency virus 1, UniProt Q72547, K103N)
test_summary: Inhibition of HIV1 RT K103N mutant
measurement_kind: IC50

compound	value_reported
CCC1(c2cccc(I)c2)Oc2ccccc2-n2cccc2C1=O (racemic)	> 10 µmol
CCC1(c2ccc(CCc3ccccc3)cc2)Oc2ccccc2-n2cccc2C1=O (racemic)	> 10 µmol
C=C(C)CCOCc1ccc(C2(CC)Oc3ccccc3-n3cccc3C2=O)cc1 (racemic)	> 10 µmol

// next entry
Ask | Looking for the measured IC50 of CCC1(c2cccc(Cl)c2)Cc2ccccc2-n2cccc2C1=O (racemic) , can you help?
Reply | 10 µM
